system: HeLa; assay: Proliferation assay (crystal violet), HeLa; type: cell-based; details: Homo sapiens, HeLa, 96 h, HeLa cells; 4 days incubation; crystal violet staining; read-out: IC50 inhibition of proliferation, HeLa
readoutLabel: IC50 (nM)
Report the value in nM with no unit label.

Previously resolved entries follow.
INSERT INTO assay_data (compound, readoutlabel, value) VALUES
  ('Cc1nsc(Nc2cnc(C(F)(F)F)cn2)c1C(=O)Nc1ccc(OC[C@@H]2CCCN(CC(F)F)C2)nc1', 'IC50', 300),
  ('Cc1nsc(Nc2cnc(C(F)(F)F)cn2)c1C(=O)Nc1ccc(OCC2CCN(CC(F)(F)F)C2)nc1 (stereo not shown)', 'IC50', 130);

Task: Give IC50 for the following compound: Cc1nsc(Nc2cnc(C(F)(F)F)cn2)c1C(=O)Nc1ccc(F)c(OC[C@@H]2CCCN(CC(F)F)C2)c1
Result: 440

Task: Give IC50 for the following compound: Cc1nsc(Nc2cncc(C(F)(F)F)n2)c1C(=O)Nc1ccc(OCC2CCN(C(=O)OC(C)(C)C)CC2)nc1
Result: 910

Task: Give IC50 for the following compound: Cc1nsc(Nc2cnc(C(F)(F)F)cn2)c1C(=O)Nc1ccc(F)c(OC[C@H]2CCN(CCC(F)(F)F)C2)c1
Result: 650

Task: Give IC50 for the following compound: CCN1CC[C@H](Oc2ccc(NC(=O)c3c(C)nsc3Nc3cnc(C(F)(F)F)cn3)cn2)[C@H](F)C1
Result: 530

Task: Give IC50 for the following compound: Cc1nsc(Nc2ccc(C#N)cn2)c1C(=O)Nc1ccc(OC2CCCN(CC(F)(F)F)C2)nc1 (stereo not shown)
Result: 540
